TEST SYSTEM: human 2N4R tau (Homo sapiens, UniProt P10636)
Sequence (P10636 1-441 isoform P10636-8): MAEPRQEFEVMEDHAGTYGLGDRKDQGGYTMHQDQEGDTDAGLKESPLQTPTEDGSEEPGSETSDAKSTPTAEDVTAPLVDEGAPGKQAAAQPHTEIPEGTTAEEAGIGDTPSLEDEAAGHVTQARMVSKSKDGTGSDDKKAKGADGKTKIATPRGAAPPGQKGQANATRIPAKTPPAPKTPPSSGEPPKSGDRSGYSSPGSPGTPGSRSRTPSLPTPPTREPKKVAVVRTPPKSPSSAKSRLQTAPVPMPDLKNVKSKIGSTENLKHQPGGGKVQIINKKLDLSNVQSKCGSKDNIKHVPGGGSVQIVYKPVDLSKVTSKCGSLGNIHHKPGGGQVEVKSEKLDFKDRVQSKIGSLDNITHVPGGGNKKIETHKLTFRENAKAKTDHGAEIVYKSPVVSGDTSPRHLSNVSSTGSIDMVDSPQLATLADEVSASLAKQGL
PROCEDURE SUMMARY: Filter trap assay for ODS-induced fibrillization of tau
Format: biochemical
CONDITION NOTES: IC50, filter trap assay
QUANTITY KIND: IC50

Which value of IC50 has been reported for "CCN1/C(=C/C(C)=C/c2sc3ccccc3[n+]2CC)Sc2ccccc21.[I-]" in the records?
~300 nM
